System: PANC-1
Experimental Protocol: SRB colorimetric assay of cell growth and viability, PANC-1
Format: cell-based, human
Assay Context: 48 hours exposure
Where a SMILES comes first, the peptide text is derived from it. Bridges are numbered along the chain shown (N, C = ends). [ ]: non-standard residue; d: D form. The star is where a group is joined. d(aIle) = CC[C@H](C)[C@@H](N)C(=O)O; d(aThr) = C[C@@H](O)[C@@H](N)C(=O)O; Hexanoyl(5-Me) = CC(C)CCCC(=O)*; Myristoyl = CCCCCCCCCCCCCC(=O)*; Orn = NCCC[C@H](N)C(=O)O; Dhb = C/C=C(\N)C(=O)O
Listed here are compounds together with their documented log10 GI50.
Measured Parameter: log10 GI50 (log10 of the value in µM)

• C/C=C1\NC(=O)[C@H](Cc2ccccc2)NC(=O)[C@@H](C(C)C)NC(=O)[C@@H]([C@@H](C)CC)NC(=O)[C@H](NC(=O)[C@H](NC(=O)[C@H](CCCN)NC(=O)[C@H]2CCCN2C(=O)[C@H](NC(=O)[C@@H](NC(=O)[C@@H](NC(=O)[C@@H](Cc2ccccc2)NC(=O)CCCC(C)C)[C@@H](C)O)C(C)C)C(C)C)[C@@H](C)CC)[C@@H](C)OC(=O)[C@H](C(C)C)NC1=O [Compound 36, [D-Phe^13]-KF] = -2.18
• C/C=C1\NC(=O)[C@H](Cc2ccccc2)NC(=O)[C@@H](C(C)C)NC(=O)[C@@H]([C@@H](C)CC)NC(=O)[C@H](NC(=O)[C@H](NC(=O)[C@H](CCCN)NC(=O)[C@H]2CCCN2C(=O)[C@H](NC(=O)[C@H](CC(C)C)NC(=O)[C@@H](NC(=O)[C@H](NC(=O)CCCC(C)C)C(C)C)[C@@H](C)O)C(C)C)[C@@H](C)CC)[C@@H](C)OC(=O)[C@H](C(C)C)NC1=O [Compound 45, [Leu^11]-KF] ({Hexanoyl(5-Me)}-[dV]TL[dV][dP][Orn][d(aIle)][d(aThr)][d(aIle)][dV]F[Dhb]V; ester 8-C) = 0.37
• C/C=C1\NC(=O)[C@H](Cc2ccccc2)NC(=O)[C@@H](C(C)C)NC(=O)[C@@H]([C@@H](C)CC)NC(=O)[C@H](NC(=O)[C@H](NC(=O)[C@H](CCCN)NC(=O)[C@H]2CCCN2C(=O)[C@H](NC(=O)[C@@H](NC(=O)[C@@H](NC(=O)[C@H](NC(=O)Cc2cc(F)cc(F)c2)C(C)C)[C@@H](C)O)C(C)C)C(C)C)[C@@H](C)CC)[C@@H](C)OC(=O)[C@H](C(C)C)NC1=O [Compound 22, [3,5-dFPhAc^14]-KF] = 0.74
• C/C=C1\NC(=O)[C@H](Cc2ccccc2)NC(=O)[C@@H](C(C)C)NC(=O)[C@@H]([C@@H](C)CC)NC(=O)[C@H](NC(=O)[C@H](NC(=O)[C@H](CCCN)NC(=O)[C@H]2CCCN2C(=O)[C@H](NC(=O)[C@@H](NC(=O)[C@@H](NC(=O)[C@H](NC(=O)CCCCC(C)(F)F)C(C)C)[C@@H](C)O)C(C)C)C(C)C)[C@@H](C)CC)[C@@H](C)OC(=O)[C@H](C(C)C)NC1=O [Compound 28, [6,6-dFHep^14]-KF] = 0.17
• C/C=C1\NC(=O)[C@H](Cc2ccccc2)NC(=O)[C@@H](C(C)C)NC(=O)[C@@H]([C@@H](C)CC)NC(=O)[C@H](NC(=O)[C@H](NC(=O)[C@H](CCCN)NC(=O)[C@H]2CCCN2C(=O)[C@H](NC(=O)[C@H](CCC(=O)O)NC(=O)[C@@H](NC(=O)[C@H](NC(=O)CCCC(C)C)C(C)C)[C@@H](C)O)C(C)C)[C@@H](C)CC)[C@@H](C)OC(=O)[C@H](C(C)C)NC1=O [Compound 51, [Glu^11]-KF] ({Hexanoyl(5-Me)}-[dV]TE[dV][dP][Orn][d(aIle)][d(aThr)][d(aIle)][dV]F[Dhb]V; ester 8-C) = 0.82
• C/C=C1\NC(=O)[C@H](Cc2ccccc2)NC(=O)[C@@H](C(C)C)NC(=O)[C@@H]([C@@H](C)CC)NC(=O)[C@H](NC(=O)[C@H](NC(=O)[C@H](CCCN)NC(=O)[C@H]2CCCN2C(=O)[C@H](NC(=O)CCCCCCCCCCCCC)C(C)C)[C@@H](C)CC)[C@@H](C)OC(=O)[C@H](C(C)C)NC1=O [Compound 32] (Myristoyl-[dV][dP][Orn][d(aIle)][d(aThr)][d(aIle)][dV]F[Dhb]V; ester 5-C) = 0.25
• C/C=C1\NC(=O)[C@H](Cc2ccccc2)NC(=O)[C@@H](C(C)C)NC(=O)[C@@H]([C@@H](C)CC)NC(=O)[C@H](NC(=O)[C@H](NC(=O)[C@H](CCCN)NC(=O)[C@H]2CCCN2C(=O)[C@H](NC(=O)[C@@H](NC(=O)[C@@H]2CCCN2C(=O)CCCC(C)C)C(C)C)C(C)C)[C@@H](C)CC)[C@@H](C)OC(=O)[C@H](C(C)C)NC1=O [Compound 55, [Pro^12, noD-Val^13]-KF] ({Hexanoyl(5-Me)}-PV[dV][dP][Orn][d(aIle)][d(aThr)][d(aIle)][dV]F[Dhb]V; ester 7-C) = 0.86
• C/C=C1\NC(=O)[C@H](Cc2ccccc2)NC(=O)[C@@H](C(C)C)NC(=O)[C@@H]([C@@H](C)CC)NC(=O)[C@H](NC(=O)[C@H](NC(=O)[C@H](CCCN)NC(=O)[C@H]2CCCN2C(=O)[C@H](NC(=O)[C@@H](NC(=O)[C@H](C)NC(=O)CCCC(C)C)C(C)C)C(C)C)[C@@H](C)CC)[C@@H](C)OC(=O)[C@H](C(C)C)NC1=O [Compound 52, [Ala^12, noD-Val^13]-KF] ({Hexanoyl(5-Me)}-AV[dV][dP][Orn][d(aIle)][d(aThr)][d(aIle)][dV]F[Dhb]V; ester 7-C) = 0.82
